- Assay Target: human Oxytocin Receptor (hOTR) (Homo sapiens (Human))
- Sequence (P30559 whole entry): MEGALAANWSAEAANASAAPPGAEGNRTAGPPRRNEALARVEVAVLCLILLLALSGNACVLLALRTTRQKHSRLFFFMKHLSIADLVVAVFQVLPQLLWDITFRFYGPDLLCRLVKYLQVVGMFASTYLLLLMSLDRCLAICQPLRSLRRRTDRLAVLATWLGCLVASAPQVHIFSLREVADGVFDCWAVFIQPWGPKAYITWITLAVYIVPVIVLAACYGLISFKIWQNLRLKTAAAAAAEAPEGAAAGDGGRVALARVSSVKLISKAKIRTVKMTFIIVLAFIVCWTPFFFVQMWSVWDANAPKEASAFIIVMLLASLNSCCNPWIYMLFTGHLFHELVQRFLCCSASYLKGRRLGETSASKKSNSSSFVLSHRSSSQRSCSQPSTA
- Experimental Protocol: Oxytocin receptor antagonist assay (oxytocin-evoked calcium, FLIPR, CHEM-1-hOTR cells)
- Type: cell-based
- Run Parameters: read-out: OT IC50
pIC50: −log10 of the molar value.
Outcome Measure: pIC50

Study these solved cases before continuing.
{"Compound": "CN1Cc2cc(Cl)ccc2-n2c(nnc2C2CC3(C2)CN(c2cccnc2)C3)C1", "Assay Value": "< 6.00"}
{"Compound": "CC(C)OC(=O)N1Cc2cc(Cl)ccc2-n2c(C3CC4(C3)CN(c3cnccn3)C4)nnc2C1C (stereo not shown)", "Assay Value": "6.30 to 7.00"}
{"Compound": "CC(=O)N1Cc2cc(Cl)ccc2-n2c(nnc2C2CC3(C2)CN(c2cnccn2)C3)C1", "Assay Value": "< 6.00"}
{"Compound": "CC(C)N1Cc2cc(Cl)ccc2-n2c(nnc2C2CC3(C2)CN(c2ccccn2)C3)C1", "Assay Value": "< 6.00"}
{"Compound": "CC1c2nnc(C3CC4(C3)CN(c3ccc(F)cn3)C4)n2-c2ccc(Cl)cc2CN1C(=O)OC1CC1 (stereo not shown) [compound 191]", "Assay Value": "6.00 to 6.30"}

Hey, quick one: what's pIC50 for each of these?
1. CC(C)C(=O)N1Cc2cc(Cl)ccc2-n2c(nnc2C2CC3(C2)CN(c2ccc(F)cn2)C3)C1
2. CC(C)OC(=O)N1Cc2cc(Cl)ccc2-n2c(nnc2C2CC3(C2)CN(C(=O)C2CC2)C3)C1
3. CCC(=O)N1Cc2cc(Cl)ccc2-n2c(nnc2C2CC3(C2)CN(c2ncccn2)C3)C1
4. CN1Cc2cc(Cl)ccc2-n2c(nnc2C2CC3(C2)CN(c2cccc(F)n2)C3)C1
5. CN1Cc2cc(Cl)ccc2-n2c(nnc2C2CC3(C2)CN(C(=O)C2CC2)C3)C1
6. O=C(OC1CC1)N1Cc2cc(Cl)ccc2-n2c(nnc2C2CC3(C2)CN(c2ccc(F)cn2)C3)C1
7. CC(C)OC(=O)N1Cc2cc(Cl)ccc2-n2c(C3CC4(C3)CN(c3cccc(C#N)n3)C4)nnc2C1C (single isomer, unassigned) [Cpd 204A]
8. CCC(=O)N1Cc2cc(Cl)ccc2-n2c(nnc2C2CC3(C2)CN(c2ccccn2)C3)C1

Output line:
1: < 6.00; 2: < 6.00; 3: < 6.00; 4: < 6.00; 5: < 6.00; 6: 6.30 to 7.00; 7: 6.30 to 7.00; 8: < 6.00

Hey, quick one: what's pIC50 for each of these?
1. COc1ccc(N2CC3(CC(c4nnc5n4-c4ccc(Cl)cc4CN(C)C5)C3)C2)nc1
2. COC(=O)N1Cc2cc(Cl)ccc2-n2c(C3CC4(C3)CN(c3ncccn3)C4)nnc2C12CC2
3. Cc1nc(N2CC3(CC(c4nnc5n4-c4ccc(Cl)cc4CN(C4CC4)C5)C3)C2)ccc1F

Output line:
1: < 6.00; 2: < 6.00; 3: 6.00 to 6.30

----------
- System: MDR1 (P-glycoprotein)
- Experimental Protocol: MDR1-MDCK effective efflux assay (Transwell, 10 μM, 1 hour), MDR1-MDCK cells
- Assay type: in vitro ADME
- Run Parameters: dog, MDCK-MDR1, pH 7.4, Papp AB MDR1
Outcome Measure: Papp A→B at 1 h, 10 μM

Study these solved cases before continuing.
{"Molecule": "CC(C)OC(=O)N1Cc2cc(Cl)ccc2-n2c(C3CC4(C3)CN(c3ncccn3)C4)nnc2C1C (stereo not shown)", "Assay Target": "MDR1 (P-glycoprotein)", "Papp A→B at 1 h, 10 μM": "> 20 ×10⁻⁶ cm/s"}
{"Molecule": "CN1Cc2cc(Cl)ccc2-n2c(nnc2C2CC3(C2)CN(c2ccc(F)cn2)C3)C1", "Assay Target": "MDR1 (P-glycoprotein)", "Papp A→B at 1 h, 10 μM": "7 to 10 ×10⁻⁶ cm/s"}
{"Molecule": "CCC(=O)N1Cc2cc(Cl)ccc2-n2c(nnc2C2CC3(C2)CN(C(=O)C2CC2)C3)C1", "Assay Target": "MDR1 (P-glycoprotein)", "Papp A→B at 1 h, 10 μM": "< 7 ×10⁻⁶ cm/s"}

Shift focus to the following entry.
Input line: I am curious: what Papp A→B at 1 h, 10 μM value has been reported for COC(=O)N1Cc2cc(Cl)ccc2-n2c(nnc2C2CC3(C2)CN(c2cccc(C)n2)C3)C1 ?
Output line: 10 to 20 ×10⁻⁶ cm/s
